# SYSTEM UNDER TEST: 5-hydroxytryptamine receptor 2A (Homo sapiens)
# METHOD SUMMARY: 5-hydroxytryptamine receptor 2A (HTR2A) small molecule agonists, cell-based qHTS assay (AID 1963587); note: nearly all actives have a fitted effect of over 30% in size
# PROTOCOL CONDITIONS: HTR2A-CHO cells, calcium flux fluorescence, agonist mode; series mostly up to 76.8 µM
Records with an inconclusive call do not appear. Active and inactive are the calls of the source. Calls come from the whole dose curve.
Thanks in advance; please answer with one of these: active, inactive

Test call for this compound, please: "C[N+]1(CCC(C(N)=O)(c2ccccc2)c2ccccc2)CCCCC1"
inactive

Test call for this compound, please: "CCOc1ccc(C(C)(C)COCc2cccc(Oc3ccccc3)c2)cc1"
inactive

Test call for this compound, please: "O=P(O)(O)c1ccccc1"
inactive

Test call for this compound, please: "CCCN1CCC[C@@H]2Cc3nc(N)ncc3C[C@H]21"
active

Test call for this compound, please: "Nc1nc(N)c(N)c(N)n1"
active

Test call for this compound, please: "C#CCN1C(=O)COc2cc(F)c(N3C(=O)C4=C(CCCC4)C3=O)cc21"
inactive

Test call for this compound, please: "CC(C)(C)c1cc(O)ccc1O"
inactive

* * *

# SYSTEM UNDER TEST: Beta-2 adrenergic receptor (Homo sapiens) (UniProt P07550)
# Sequence (P07550 whole entry, looked up): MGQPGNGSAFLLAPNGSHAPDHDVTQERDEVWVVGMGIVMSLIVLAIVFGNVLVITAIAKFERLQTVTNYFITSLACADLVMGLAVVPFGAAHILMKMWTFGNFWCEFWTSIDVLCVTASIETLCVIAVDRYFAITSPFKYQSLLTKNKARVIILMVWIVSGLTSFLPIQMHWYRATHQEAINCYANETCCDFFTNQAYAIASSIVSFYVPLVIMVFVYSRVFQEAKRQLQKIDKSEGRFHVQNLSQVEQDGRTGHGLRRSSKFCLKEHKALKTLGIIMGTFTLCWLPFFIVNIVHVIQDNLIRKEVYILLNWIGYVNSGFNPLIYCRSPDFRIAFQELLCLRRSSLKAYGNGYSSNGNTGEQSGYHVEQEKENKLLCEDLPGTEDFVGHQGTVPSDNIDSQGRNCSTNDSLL
# METHOD SUMMARY: Adrenergic beta2 receptor (ADRB2) small molecule agonists, cell-based qHTS assay (AID 1963593)
# PROTOCOL CONDITIONS: CHO-ADRB2 cells, cAMP HTRF, 30 min; series mostly up to 92.4 µM
Results filed as inconclusive are left out. Calls of active or inactive are those of the source. The call rests on the fitted dose curve.
Thanks in advance; please answer with one of these: t (active), f (inactive)

Test call for this molecule, please: "CCC(C)(C)O"
f

Test call for this molecule, please: "CCOP(=S)(OCC)SCCl"
f

Test call for this molecule, please: "NC(=O)CI"
f

Test call for this molecule, please: "CN(C)[C@@H]1C(=O)C(C(N)=O)=C(O)[C@@]2(O)C(=O)C3=C(O)c4c(O)ccc(Cl)c4[C@@](C)(O)[C@H]3C[C@@H]12"
f

Test call for this molecule, please: CC1NCCOC1c1ccccc1 (centres undefined)
f

Test call for this molecule, please: "CCN(CC)c1c([N+](=O)[O-])cc(C(F)(F)F)c(N)c1[N+](=O)[O-]"
f

Test call for this molecule, please: CCC1COC(Cn2cncn2)(c2ccc(Cl)cc2Cl)O1 (centres undefined)
f

Test call for this molecule, please: "Nc1ccc(Cl)cc1C(=O)c1ccccc1F"
f

Test call for this molecule, please: "O=C1CC[C@@]2(O)[C@H]3Cc4ccc(O)c5c4[C@@]2(CCN3CC2CC2)[C@H]1O5"
f

Test call for this molecule, please: CCCSP(=S)(OCC)Oc1ccc(Cl)cc1Cl (centres undefined)
f

Test call for this molecule, please: "Cc1c(COC(=O)[C@@H]2[C@H](/C=C(\Cl)C(F)(F)F)C2(C)C)cccc1-c1ccccc1"
f

Test call for this molecule, please: O=c1c(C2CC(c3ccc(-c4ccc(Br)cc4)cc3)Cc3ccccc32)c(O)sc2ccccc12 (centres undefined)
f

Test call for this molecule, please: FC(F)OC(F)(F)C(F)Cl (centres undefined)
f

Test call for this molecule, please: "CN=CNc1ccc(C)cc1C"
f

Test call for this molecule, please: COP(=O)(OC)OC(Br)C(Cl)(Cl)Br (centres undefined)
f

Test call for this molecule, please: "ClC1=C(Cl)[C@]2(Cl)[C@@H]3[C@@H](Cl)[C@H]4O[C@H]4[C@@H]3C1(Cl)C2(Cl)Cl"
t

Test call for this molecule, please: "Cc1ccc2cc3c(ccc4ccccc43)c3c2c1CC3"
f

Test call for this molecule, please: "CCCN(CCCl)c1c([N+](=O)[O-])cc(C(F)(F)F)cc1[N+](=O)[O-]"
f

Test call for this molecule, please: "S=C=Nc1cccc2ccccc12"
f

* * *

# METHOD SUMMARY: p53 small molecule agonists, cell-based qHTS assay: qHTS cell viability counter screen (AID 1963581); note: nearly all actives have a fitted effect of over 45% in size
# PROTOCOL CONDITIONS: p53RE-bla HCT-116 viability, ATP luminescence, 16 h; series mostly up to 66 µM
Records with an inconclusive call do not appear. Activity calls are given as the source filed them. Calls follow the shape of the full dose curve.
Thanks in advance; please answer with one of these: active, inactive

Test call for this compound, please: "Nc1ccc2c(c1)Cc1ccccc1-2"
inactive

Test call for this compound, please: "O=C(O)C(Br)(Br)Br"
inactive

Test call for this compound, please: "CN(N=O)c1ccc([N+](=O)[O-])cc1"
inactive

Test call for this compound, please: CCCSP(=S)(OCC)Oc1ccc(SC)cc1 (configuration not stated)
inactive

Test call for this compound, please: CC(O)(CS(=O)(=O)c1ccc(F)cc1)C(=O)Nc1ccc(C#N)c(C(F)(F)F)c1 (configuration not stated)
inactive

Test call for this compound, please: "Clc1ccc(-c2ccccc2)cc1"
inactive

Test call for this compound, please: "Cc1c(Cl)c(=O)oc2cc(OP(=O)(OCCCl)OCCCl)ccc12"
inactive

Test call for this compound, please: "Fc1cccc(Cl)c1CCl"
inactive

Test call for this compound, please: "COc1ccc(C(=O)N2CCCC2=O)cc1"
inactive

Test call for this compound, please: "O=C(Cc1ccccc1)OCCc1ccccc1"
inactive

Test call for this compound, please: "Nc1ccc([N+](=O)[O-])cc1Cl"
inactive

Test call for this compound, please: "CCOP(O)OCC"
inactive

Test call for this compound, please: "Nc1cc2c3c(c1)C(c1ccccc1)=N[C@@H](NC(=O)c1cccnc1)C(=O)N3CC2"
inactive

Test call for this compound, please: "CO/N=C(/C(=O)OC)c1ccccc1COc1ccccc1C"
inactive

Test call for this compound, please: "CCOP(=O)(O)C(N)=O"
inactive

Test call for this compound, please: "c1ccc(C2CC2)c(OCC2=NCCN2)c1"
inactive

Test call for this compound, please: "O=S(=O)(NS(=O)(=O)C(F)(F)F)C(F)(F)F"
inactive

Test call for this compound, please: "O=C(N[C@H](c1ccccc1)[C@@H]1CN2CCC1CC2)c1c(Cl)ccc(C(F)(F)F)c1Cl"
inactive

Test call for this compound, please: CCOc1cc(C(C)(C)C)ccc1C1COC(c2c(F)cccc2F)=N1 (configuration not stated)
inactive

Test call for this compound, please: CC(Oc1ccc(Oc2ncc(C(F)(F)F)cc2Cl)cc1)C(=O)O (configuration not stated)
inactive

Test call for this compound, please: "Clc1cc(Cl)c(-c2cc(Cl)c(Cl)cc2Cl)cc1Cl"
inactive

Test call for this compound, please: CCOC(=O)C(Cl)C(C)=O (configuration not stated)
inactive

Test call for this compound, please: "O=C(O)C1(c2ccc3c(c2)OC[C@H](Cc2ccc(-c4ccccc4)cc2)[C@H]3O)CCCC1"
active

Test call for this compound, please: "C[C@H](N)C(=O)c1ccccc1"
inactive

Test call for this compound, please: "C[As+](C)(C)CC(=O)[O-]"
inactive

Test call for this compound, please: CCOP(=S)(Oc1ccc([N+](=O)[O-])cc1)c1ccccc1 (configuration not stated)
inactive

Test call for this compound, please: "CCC(C)(c1ccc(O)cc1)c1ccc(O)cc1"
inactive

Test call for this compound, please: CC1N=C(N)OC1c1ccccc1 (configuration not stated)
inactive

Test call for this compound, please: "COc1cc(C[C@@H](C)N)c(OC)cc1C"
inactive

Test call for this compound, please: "O=C(NC(=O)c1cc(F)c(F)cc1Cl)Nc1cc(F)ccc1N1CCC(C(=O)O)CC1"
inactive

Test call for this compound, please: "COc1ccc([N+](=O)[O-])cc1O"
inactive

Test call for this compound, please: c1ccc2c(c1)Sc1ccccc1N2CC1CN2CCC1CC2 (configuration not stated)
inactive

Test call for this compound, please: OC(Cn1cncn1)(c1ccc(F)cc1)c1ccccc1F (configuration not stated)
inactive

Test call for this compound, please: "CC(=O)[O-].CC(=O)[O-].O.O.O.[Pb+2]"
inactive

Test call for this compound, please: "BrCBr"
inactive

Test call for this compound, please: "O=[N+]([O-])c1cc(C(F)(F)F)c(Cl)c([N+](=O)[O-])c1Nc1ncc(C(F)(F)F)cc1Cl"
active

Test call for this compound, please: "Nc1ccc([N+](=O)[O-])cc1[N+](=O)[O-]"
inactive

* * *

# SYSTEM UNDER TEST: D(2) dopamine receptor (Homo sapiens) (UniProt P14416)
# Sequence (P14416 whole entry, looked up): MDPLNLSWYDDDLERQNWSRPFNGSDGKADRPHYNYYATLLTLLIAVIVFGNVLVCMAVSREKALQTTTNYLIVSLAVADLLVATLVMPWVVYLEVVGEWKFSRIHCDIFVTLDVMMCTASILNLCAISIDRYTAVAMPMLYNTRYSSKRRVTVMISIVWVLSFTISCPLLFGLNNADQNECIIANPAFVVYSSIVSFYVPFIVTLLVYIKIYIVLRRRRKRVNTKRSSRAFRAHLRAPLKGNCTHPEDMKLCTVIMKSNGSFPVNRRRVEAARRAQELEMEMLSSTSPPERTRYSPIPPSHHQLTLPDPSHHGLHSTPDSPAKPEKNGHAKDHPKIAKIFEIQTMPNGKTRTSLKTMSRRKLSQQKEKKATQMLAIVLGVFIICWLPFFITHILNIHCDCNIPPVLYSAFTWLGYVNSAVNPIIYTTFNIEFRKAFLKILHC
# METHOD SUMMARY: Dopamine D2 receptor (DRD2) small molecule agonists, cell-based qHTS assay (AID 1963594); note: nearly all actives have a fitted effect of over 35% in size
# PROTOCOL CONDITIONS: HEK293-DRD2 cAMP HTRF, agonist mode, 30 min; series mostly up to 92.4 µM
Records with an inconclusive call do not appear. The source made the active and inactive calls. Calls come from the whole dose curve.
Thanks in advance; please answer with one of these: T (active), F (inactive)

Test call for this compound, please: "COC(=O)COc1ccc(Cl)cc1Cl"
F

Test call for this compound, please: "C=C1C[C@@H]2[C@H](CC[C@]3(C)C(=O)CC[C@@H]23)[C@@]2(C)C=CC(=O)C=C12"
F

Test call for this compound, please: O=C1OC(CCN2CCCCC2)OC1(c1ccccc1)c1ccccc1 (stereo not given)
F

Test call for this compound, please: CN1C(=O)COc2c(C(=O)NC3CN4CCC3CC4)cc(Cl)cc21 (stereo not given)
F

Test call for this compound, please: "NNC(=O)c1cccnc1"
F

Test call for this compound, please: "O=C(CBr)Nc1ccc(Cl)cc1C(=O)c1ccccc1F"
F

Test call for this compound, please: "CCOC(=O)CCN(SN(C)C(=O)Oc1cccc2c1OC(C)(C)C2)C(C)C"
F

Test call for this compound, please: CCC(C)Nc1c([N+](=O)[O-])cc(C(C)(C)C)cc1[N+](=O)[O-] (stereo not given)
F

Test call for this compound, please: "CCNC(=O)NC(=O)/C(C#N)=N/OC"
F

Test call for this compound, please: "N#CC(C#N)=C(C#N)C#N"
F

Test call for this compound, please: "N#CN=C1SCCN1Cc1ccc(Cl)nc1"
F

Test call for this compound, please: "CC(C)O.CC(C)O.OCCN(CCO)CCO.OCCN(CCO)CCO.[Ti]"
F

Test call for this compound, please: "Cc1ccc2cc3c(ccc4ccccc43)c3c2c1CC3"
F

Test call for this compound, please: "CN1CCc2cc(Cl)c(O)cc2[C@H]2c3ccccc3CC[C@@H]21"
F

Test call for this compound, please: "CC(C)(C)N(NC(=O)c1ccc(Cl)cc1)C(=O)c1ccccc1"
F

Test call for this compound, please: "COc1c2c(cc3c1OCO3)CCN(C)C2"
T

Test call for this compound, please: "Clc1ccccc1-c1ccccc1Cl"
F

Test call for this compound, please: "c1coc(-c2nc3ccccc3[nH]2)c1"
F

Test call for this compound, please: C[N+]1(CCF)[C@@H]2CC[C@H]1CC(OC(=O)C(O)(c1ccccc1)c1ccccc1)C2 (stereo not given in full)
F

Test call for this compound, please: CN1C(=O)C(O)N=C(c2ccccc2)c2cc(Cl)ccc21 (stereo not given)
F

Test call for this compound, please: "COc1cccc2c1cc([N+](=O)[O-])c1c(C(=O)O)cc3c(c12)OCO3"
F

Test call for this compound, please: "CCCCCCCCCC(=O)O[C@H]1CC[C@H]2[C@@H]3CCC4=CC(=O)CC[C@@H]4[C@H]3CC[C@]12C"
F

Test call for this compound, please: "Nc1ccc(Cl)cc1C(=O)c1ccccc1F"
F

Test call for this compound, please: "C[C@H]1[C@H](c2ccc(Cl)cc2)SC(=O)N1C(=O)NC1CCCCC1"
F

Test call for this compound, please: "OC(c1ccc(Cl)cc1)(c1ccc(Cl)cc1)c1cccnc1"
F
